molecular target: Gonadotropin-releasing hormone receptor (Homo sapiens); assay: In vitro inhibition of GnRH-stimulated phosphatidyl inositol hydrolysis in CHO cells stably expressing gonadotropin-releasing hormone receptor.; type: functional, cell-based
Sequence (P30968 whole entry): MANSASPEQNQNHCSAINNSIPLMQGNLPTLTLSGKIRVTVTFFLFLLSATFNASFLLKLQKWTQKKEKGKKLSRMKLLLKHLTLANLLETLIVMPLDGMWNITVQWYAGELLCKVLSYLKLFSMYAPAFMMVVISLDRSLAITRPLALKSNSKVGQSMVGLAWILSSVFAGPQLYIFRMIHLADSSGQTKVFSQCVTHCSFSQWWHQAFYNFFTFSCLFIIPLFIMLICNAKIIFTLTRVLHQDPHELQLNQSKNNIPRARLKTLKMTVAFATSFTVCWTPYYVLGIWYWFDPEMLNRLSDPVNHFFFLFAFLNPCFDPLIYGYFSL
pIC50: −log10 of the molar value.
Please mark Satisfied if the recorded pIC50 is equal to or greater than 7, and Not satisfied if it falls below.

Record excerpt, results attached:
Molecule	Measurement target	Class name
CCn1nccc1NC(=O)c1cc2c(OCCC3CCCCN3)c(-c3cc(C)cc(C)c3)c(O)nc2cc1Cl (stereo not drawn)	Gonadotropin-releasing hormone receptor (Homo sapiens)	Not satisfied
Cc1cc(C)cc(-c2c(O)nc3cc(Cl)c(C(=O)Nc4ccncn4)cc3c2OCC[C@@H]2CCCCN2)c1	Gonadotropin-releasing hormone receptor (Homo sapiens)	Satisfied
Cc1cc(C)cc(-c2c(O)nc3cc(Cl)c(C(=O)Nc4ccncn4)cc3c2OCCC2CCCCN2)c1 (stereo not drawn)	Gonadotropin-releasing hormone receptor (Homo sapiens)	Satisfied
Cc1cc(C)cc(-c2c(O)nc3cc(Cl)c(C(=O)Nc4cnccn4)cc3c2OCCC2CCCCN2)c1 (stereo not drawn)	Gonadotropin-releasing hormone receptor (Homo sapiens)	Satisfied
Cc1cc(C)cc(-c2c(O)nc3cc(Cl)c(C(=O)Nc4ccnc(C5CC5)n4)cc3c2OCCC2CCCCN2)c1 (stereo not drawn)	Gonadotropin-releasing hormone receptor (Homo sapiens)	Not satisfied
Cc1cc(C)cc(-c2c(O)nc3cc(Cl)c(C(=O)NCc4ccc5c(c4)OCO5)cc3c2OCCC2CCCCN2)c1 (stereo not drawn)	Gonadotropin-releasing hormone receptor (Homo sapiens)	Not satisfied
Cc1cc(C)cc(-c2c(O)nc3cc(Cl)c(C(=O)Nc4nc[nH]n4)cc3c2OCCC2CCCCN2)c1 (stereo not drawn)	Gonadotropin-releasing hormone receptor (Homo sapiens)	Not satisfied

API: the following record is the query input.
Can Cc1cc(C)cc(-c2c(O)nc3cc(Cl)c(C(=O)Nc4cc(C)nc(C)n4)cc3c2OCCC2CCCCN2)c1 (stereo not drawn) be said to have pIC50 at or above 7? Not satisfied

---

Target: Gonadotropin-releasing hormone receptor (Rattus norvegicus)
Sequence (P30969 whole entry): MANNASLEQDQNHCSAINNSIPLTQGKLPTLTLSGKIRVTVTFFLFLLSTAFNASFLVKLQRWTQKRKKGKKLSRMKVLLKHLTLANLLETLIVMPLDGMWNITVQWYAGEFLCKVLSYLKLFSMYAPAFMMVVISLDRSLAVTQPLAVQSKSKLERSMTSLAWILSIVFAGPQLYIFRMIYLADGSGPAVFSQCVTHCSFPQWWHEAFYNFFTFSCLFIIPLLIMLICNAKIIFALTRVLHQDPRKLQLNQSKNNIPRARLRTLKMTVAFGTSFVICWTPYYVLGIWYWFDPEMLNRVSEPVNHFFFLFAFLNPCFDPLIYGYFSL
Assay: In vitro inhibition of GnRH stimulated release of luteinizing hormone from the rat primary pituitary cells.
Measured attribute: IC50

Here are 3 molecules together with their reported answers.
Molecule	Reported value
Cc1cc(C)cc(-c2c(O)nc3cc(Cl)c(C(=O)Nc4cnccn4)cc3c2OCCC2CCCCN2)c1 (centres undefined)	2.2 µM
Cc1cc(C)cc(-c2c(O)nc3cc(Cl)c(C(=O)NCc4ccc5c(c4)OCO5)cc3c2OCCC2CCCCN2)c1 (centres undefined)	> 1.28 µM
Cc1cc(C)cc(-c2c(O)nc3cc(Cl)c(C(=O)Nc4cc(C)no4)cc3c2OCCC2CCCCN2)c1 (centres undefined)	> 1.28 µM

Alright, here's another molecule for you.
Notebook entry, Gonadotropin-releasing hormone receptor (Rattus norvegicus) assay: IC50 of Cc1cc(C)cc(-c2c(O)nc3cc(Cl)c(C(=O)Nc4cccnc4)cc3c2OCCC2CCCCN2)c1 (centres undefined) = ? > 1.28 µM

---

biological target: Gonadotropin-releasing hormone receptor (Rattus norvegicus, UniProt P30969); experiment: In vitro inhibition of GnRH stimulated release of luteinizing hormone from the rat primary pituitary cells.
Measured attribute: pIC50
Formally, pIC50 is defined as -log10 of the concentration c, with c in mol/L.

Here are 3 compounds together with their reported answers.
Compound	Measured attribute	Reported value
Cc1cc(C)cc(-c2c(O)nc3cc(Cl)c(C(=O)Nc4ccnc(C)n4)cc3c2OCCC2CCCCN2)c1 (stereo unspecified)	pIC50	7.06
Cc1cc(C)cc(-c2c(O)nc3cc(Cl)c(C(=O)Nc4cnsn4)cc3c2OCCC2CCCCN2)c1 (stereo unspecified)	pIC50	6.53
Cc1cc(C)cc(-c2c(O)nc3cc(Cl)c(C(=O)Nc4cnsn4)cc3c2OCC[C@@H]2CCCCN2)c1	pIC50	7.62

Param item = Cc1cc(C)cc(-c2c(O)nc3cc(Cl)c(C(=O)Nc4cc(C)on4)cc3c2OCCC2CCCCN2)c1 (stereo unspecified) ; retrieve measured pIC50. 6.29

Entry to check: Cc1cc(C)cc(-c2c(O)nc3cc(Cl)c(C(=O)Nc4cc(Cl)ncn4)cc3c2OCCC2CCCCN2)c1 (stereo unspecified) 7.10

Entry to check: Cc1cc(C)cc(-c2c(O)nc3cc(Cl)c(C(=O)Nc4ccccn4)cc3c2OCCC2CCCCN2)c1 (stereo unspecified) 5.90

Entry to check: Cc1cc(C)cc(-c2c(O)nc3cc(Cl)c(C(=O)Nc4cc(C)ncn4)cc3c2OCCC2CCCCN2)c1 (stereo unspecified) 6.78

---

biological target: Gonadotropin-releasing hormone receptor (Rattus norvegicus, UniProt P30969); assay: In vitro inhibition of GnRH stimulated release of luteinizing hormone from the rat primary pituitary cells.
// reported pIC50 per item
Formally, pIC50 is defined as -log10 of the concentration c, with c in mol/L.

Here are 3 compounds together with their reported answers.
Compound	pIC50
Cc1cc(C)cc(-c2c(O)nc3cc(Cl)c(C(=O)Nc4ccncn4)cc3c2OCC[C@@H]2CCCCN2)c1	7.02
Cc1cc(C)cc(-c2c(O)nc3cc(Cl)c(C(=O)Nc4cc(C)ns4)cc3c2OCCC2CCCCN2)c1 (centres undefined)	6.28
Cc1cc(C)cc(-c2c(O)nc3cc(Cl)c(C(=O)Nc4ccncc4)cc3c2OCCC2CCCCN2)c1 (centres undefined)	5.96

Param item = Cc1cc(C)cc(-c2c(O)nc3cc(Cl)c(C(=O)Nc4ccncn4)cc3c2OCCC2CCCCN2)c1 (centres undefined) ; retrieve measured pIC50. 6.62

---

Molecular target: Gonadotropin-releasing hormone receptor (Rattus norvegicus)
Sequence (P30969 whole entry): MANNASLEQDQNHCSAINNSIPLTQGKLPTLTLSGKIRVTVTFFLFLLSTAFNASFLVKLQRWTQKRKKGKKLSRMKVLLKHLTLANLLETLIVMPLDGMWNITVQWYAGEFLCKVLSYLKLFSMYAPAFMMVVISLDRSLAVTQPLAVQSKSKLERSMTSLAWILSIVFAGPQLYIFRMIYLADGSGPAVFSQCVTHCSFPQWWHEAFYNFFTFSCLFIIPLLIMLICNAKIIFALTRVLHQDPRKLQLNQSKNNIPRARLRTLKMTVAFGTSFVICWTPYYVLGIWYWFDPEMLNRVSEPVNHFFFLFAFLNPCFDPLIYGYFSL
Experiment: In vitro inhibition of GnRH stimulated release of luteinizing hormone from the rat primary pituitary cells.
pIC50: −log10 of the molar value.
Measured attribute: pIC50

Here are 4 molecules together with their reported answers.
Molecule	pIC50
CCC(C)N(C(=O)c1cc2c(OCCC3CCCCN3)c(-c3cc(C)cc(C)c3)c(O)nc2cc1Cl)C(C)CC (stereo not given)	< 5.89
Cc1cc(C)cc(-c2c(O)nc3cc(Cl)c(C(=O)Nc4nc[nH]n4)cc3c2OCCC2CCCCN2)c1 (stereo not given)	< 5.89
CCN(CC)C(=O)c1cc2c(OCCC3CCCCN3)c(-c3cc(C)cc(C)c3)c(O)nc2cc1Cl (stereo not given)	< 5.89
Cc1cc(C)cc(-c2c(O)nc3cc(Cl)c(C(=O)Nc4ncccn4)cc3c2OCCC2CCCCN2)c1 (stereo not given)	< 5.89

Param item = Cc1cc(C)cc(-c2c(O)nc3cc(Cl)c(C(=O)Nc4nnc(C)s4)cc3c2OCCC2CCCCN2)c1 (stereo not given) ; retrieve measured pIC50. < 5.89

The measured values listed here are drawn from ChEMBL document CHEMBL1133406.
